These measurements were taken from ChEMBL document CHEMBL1221348.

- System: K562
- procedure-details: Cytotoxicity against human K562 cells after 5 days by MTT assay
- Assay type: functional, cell-based
- measurement-parameters: K562, 120 h
measured-parameter: IC50

In the examples that follow, each entry is paired with its recorded IC50.
smiles-input: COc1ccc(Cn2nncc2-c2cc(OC)c(OC)c(OC)c2)cc1
measured-parameter: IC50
measured-result: 8.66 µM
//
smiles-input: COc1ccc(Cn2cc(-c3cc(OC)c(OC)c(OC)c3)nn2)cc1O
measured-parameter: IC50
measured-result: > 10 µM
//
smiles-input: COc1ccc(-n2cc(-c3cc(OC)c(OC)c(OC)c3)nn2)cc1[N+](=O)[O-]
measured-parameter: IC50
measured-result: > 10 µM
//
smiles-input: COc1ccc(-c2cnnn2Cc2cc(OC)c(OC)c(OC)c2)cc1Br
measured-parameter: IC50
measured-result: > 10 µM
//
smiles-input: COc1ccc(-c2cnnn2Cc2cc(OC)c(OC)c(OC)c2)cc1[N+](=O)[O-]
measured-parameter: IC50
measured-result: > 10 µM
//
smiles-input: COc1ccc(-c2cnnn2Cc2cc(OC)c(OC)c(OC)c2)cc1N
measured-parameter: IC50
measured-result: 0.38 µM
//
smiles-input: COc1ccc(-c2cn(-c3cc(OC)c(OC)c(OC)c3)nn2)cc1[N+](=O)[O-]
measured-parameter: IC50
measured-result: > 10 µM
//
smiles-input: COc1ccc(-n2cc(-c3cc(OC)c(OC)c(OC)c3)nn2)cc1
measured-parameter: IC50
measured-result: > 10 µM
//
smiles-input: COc1ccc(-n2cc(-c3cc(OC)c(OC)c(OC)c3)nn2)cc1N
measured-parameter: IC50
measured-result: > 10 µM
//
smiles-input: COc1ccc(Cn2nncc2-c2cc(OC)c(OC)c(OC)c2)cc1Br
measured-parameter: IC50
measured-result: > 10 µM

I would be grateful if you could provide IC50 for each of the following entries.
1. COc1ccc(Cn2nncc2-c2cc(OC)c(OC)c(OC)c2)cc1N
2. COc1ccc(-c2cn(-c3cc(OC)c(OC)c(OC)c3)nn2)cc1Br

1. 0.73 µM
2. > 10 µM

// each listed compound needs a value for IC50
1. COc1ccc(-c2cn(-c3cc(OC)c(OC)c(OC)c3)nn2)cc1
2. COc1ccc(-c2cn(-c3cc(OC)c(OC)c(OC)c3)nn2)cc1O
3. COc1ccc(Cn2nncc2-c2cc(OC)c(OC)c(OC)c2)cc1[N+](=O)[O-]
4. COc1ccc(Cn2cc(-c3cc(OC)c(OC)c(OC)c3)nn2)cc1
5. COc1ccc(-c2cn(Cc3cc(OC)c(OC)c(OC)c3)nn2)cc1
6. COc1ccc(-c2cn(Cc3cc(OC)c(OC)c(OC)c3)nn2)cc1N
7. COc1ccc(Cn2cc(-c3cc(OC)c(OC)c(OC)c3)nn2)cc1Br
8. COc1ccc(-c2cn(Cc3cc(OC)c(OC)c(OC)c3)nn2)cc1[N+](=O)[O-]

> 10 µM
> 10 µM
> 10 µM
> 10 µM
> 10 µM
> 10 µM
> 10 µM
> 10 µM

---

- Test system: K562
- procedure-details: Cytotoxicity against human K562 cells after 5 days by MTT assay
- Assay type: functional, cell-based
- measurement-parameters: K562, 120 h
measured-parameter: IC50 (µM)
Give bare numbers, in µM.

smiles-input: COc1ccc(-n2cc(-c3cc(OC)c(OC)c(OC)c3)nn2)cc1O
measured-on: K562
IC50 / µM: 3.2

Per the record, COc1ccc(-c2cnnn2Cc2cc(OC)c(OC)c(OC)c2)cc1O has IC50 of 0.53
